- Test details: Intrinsic clearance in human hepatocytes measured per 10^6 cells
- Format: ADME, cell-based, Hepatocyte
- Test parameters: read-out: CLH
Outcome label depends on hepatocyte CLint relative to 10 µL/min/1e6 cells: at/above gives Criterion met, below gives Criterion not met.

Would you please look over these solved cases?
> print(dat)
                               query.smiles     classification
1  Cc1cc(F)ccc1-c1c(Cc2ccc(/C=C/C(=O)O)cc2)c2ccc(CO)cc2oc1=O      Criterion met
2  O=C(O)/C=C/c1ccc(Cc2c(-c3ccc(OC(F)(F)F)cc3)c(=O)oc3ccccc23)cc1  Criterion not met
3  Cc1cc(OC(F)(F)F)ccc1-c1c(Oc2ccc(/C=C/C(=O)O)cc2)c2ccc(O)cc2oc1=O      Criterion met
4  Cc1cc(F)ccc1-c1c(Cc2ccc(/C=C/C(=O)O)cc2)c2ccc(O)cc2oc1=O      Criterion met
5  O=C(O)/C=C/c1ccc(Cc2c(-c3ccc(OC(F)(F)F)cc3)c(=O)oc3cc(O)ccc23)cc1  Criterion not met

Does hepatocyte CLint meet or surpass 10 µL/min/1e6 cells for Cc1cc(F)ccc1-c1c(Oc2ccc(/C=C/C(=O)O)cc2)c2cc(F)c(O)cc2oc1=O ? Criterion met

Does hepatocyte CLint meet or surpass 10 µL/min/1e6 cells for Cc1cc(OC(F)(F)F)ccc1-c1c(Oc2ccc(/C=C/C(=O)O)cc2)c2ccc(C(F)F)cc2oc1=O ? Criterion met

Does hepatocyte CLint meet or surpass 10 µL/min/1e6 cells for O=C(O)/C=C/c1ccc(Cc2c(-c3ccccc3)c(=O)oc3cc(O)ccc23)cc1 ? Criterion met

Does hepatocyte CLint meet or surpass 10 µL/min/1e6 cells for Cc1c(O)ccc2c(Cc3ccc(/C=C/C(=O)O)cc3)c(-c3ccc(OC(F)(F)F)cc3)c(=O)oc12 ? Criterion met

Does hepatocyte CLint meet or surpass 10 µL/min/1e6 cells for Cc1cc(F)ccc1-c1c(Oc2ccc(/C=C/C(=O)O)cc2)c2ccc(O)cc2oc1=O ? Criterion met

Does hepatocyte CLint meet or surpass 10 µL/min/1e6 cells for COc1ccc2c(Cc3ccc(/C=C/C(=O)O)cc3)c(-c3ccc(OC(F)(F)F)cc3)c(=O)oc2c1 ? Criterion met

Does hepatocyte CLint meet or surpass 10 µL/min/1e6 cells for Cc1cc(F)ccc1-c1c(Cc2ccc(/C=C/C(=O)O)cc2)c2c(F)cc(O)cc2oc1=O ? Criterion met

Does hepatocyte CLint meet or surpass 10 µL/min/1e6 cells for Cc1cc2c(Cc3ccc(/C=C/C(=O)O)cc3)c(-c3ccc(OC(F)(F)F)cc3)c(=O)oc2cc1O ? Criterion met

----------
Measured Papp A→B, listed per entry for reference.
- Test details: Apparent permeability from apical to basolateral side in human Caco2 cells
- Format: ADME, cell-based
- Test parameters: Caco-2
Supply the numeric figure in ×10⁻⁶ cm/s, leaving out any unit text.

Check out these entries, answers already filled in.
> print(dat)
                               query.smiles  recorded.measurement
1  Cc1cc(OC(F)(F)F)ccc1-c1c(Oc2ccc(/C=C/C(=O)O)cc2)c2ccc(O)cc2oc1=O                    15
2  Cc1cc(F)ccc1-c1c(Oc2ccc(/C=C/C(=O)O)cc2)c2ccc(O)cc2oc1=O                    19
3  Cc1cc(F)ccc1-c1c(Oc2ccc(/C=C/C(=O)O)cc2)c2ccccc2oc1=O                    47
4  O=C(O)/C=C/c1ccc(Cc2c(-c3ccccc3)c(=O)oc3cc(O)ccc23)cc1                    10

Quick note, Papp A→B for Cc1cc(OC(F)(F)F)ccc1-c1c(Oc2ccc(/C=C/C(=O)O)cc2)c2ccccc2oc1=O landed at 39

The origin of these recorded values is ChEMBL document CHEMBL3425438.
